Tested system: HIV-1 integrase wild-type (IN1-288) (Human immunodeficiency virus 1, UniProt P04585 P04585:1148-1435)
Assay comment: inhibition; 3'-processing column as printed; strand transfer column 0.059
Assay context: G4
Observation type: IC50 (nM)
Answers are plain numbers, in nM.

Exercise: Any idea what IC50 was measured for GGGGTGGTGGGTGGGT (structured_DNA, C-5 propynyl dU at capital T; PS at first and last linkage) [T30720] ?
Solution: 62

The origin of these recorded values is patent US6288042.
